- assay_protocol: Single dose pharmacokinetic evaluation of formulations in male Sprague Dawley rats
- Type: in vivo
- experimental_conditions: plasma, iv, rat, intravenously 1 mg/kg (reference), read-out: F % (bioavailability)
endpoint_name: bioavailability (%)

>>> df
                               smiles_entry    endpoint_name  measurement
0  Cc1ccc(-n2nc3c4cc(Cc5ccccc5)ccc4[nH]c(=O)n3c2=O)cc1  bioavailability          100

----------
- assay_protocol: Single dose pharmacokinetic evaluation of formulations in male Sprague Dawley rats
- Type: in vivo
- experimental_conditions: plasma, iv, rat, intravenously 1 mg/kg, read-out: AUC 0-24
endpoint_name: AUC(0-t) (µM·h)

>>> df
                               smiles_entry  measurement
0  Cc1ccc(-n2nc3c4cc(Cc5ccccc5)ccc4[nH]c(=O)n3c2=O)cc1         1.18
